Cited source: the NIST ThermoML archive (doi:10.1021/acs.jced.5b00845)

protocol: mn = molality of the nth substance listed, in mol/kg
settings: 288.15 K; 100 kPa; Liquid; Capillary tube (Ostwald / Ubbelohde) method; m1 = 0.5
reportedEndpoint: viscosity (mPa·s)

{"molecule": "O=P([O-])([O-])[O-].[K+].[K+].[K+] [tripotassium phosphate] + O", "dataValue": 1.414}
{"molecule": "O=P([O-])(O)O.[Na+] [sodium dihydrogen phosphate] + O", "dataValue": 1.427}
{"molecule": "N.O=P(O)(O)O [ammonium dihydrogen phosphate] + O", "dataValue": 1.29}
{"molecule": "O=P([O-])(O)O.[K+] [monopotassium phosphate] + O", "dataValue": 1.301}
